Tested on: Homo sapiens (human subject panel, olfactory perception)
protocol description: perceived odor intensity rating (rating 0-100); higher = stronger perceived smell
experimental parameters: odor dilution in paraffin oil: 1/1,000
Use Y when the recorded perceived odor intensity rating is no lower than 60; use N when it is lower.

Say whether O=C(Cc1ccccc1)OCCc1ccccc1 [Phenethyl phenylacetate] shows perceived odor intensity rating of 60 or more.
N

How about CCOC(=O)CCCCCCCCC(=O)OCC [Diethyl sebacate] ?
N

And the next one, O=C(OCc1ccccc1)c1ccccc1 [Benzyl benzoate] ?
N

Please do the same for CC1COC(c2ccccc2)O1 (configuration not stated) [Benzaldehyde propylene glycol acetal] as well.
N

CCCCCC(=O)O [caproic acid] ?
Y

What would you report for CC(C)CCOC(=O)/C=C/c1ccccc1 [Isoamyl cinnamate] ?
N

Next record, please: CCC(=O)CC [3-Pentanone]
N

Input OCc1ccco1 [Furfuryl alcohol]
N

Okay, and CSC [methyl sulfide] ?
N

And CCCCCC(O)CC (configuration not stated) [3-Octanol] ?
Y

Here is the next compound: COc1cc(C(=O)O)ccc1O [4-hydroxy-3-methoxybenzoic acid]
N

Next record, please: CCCCCCCCCCCCOC(C)=O [Lauryl acetate]
N

Try CCCCCC(C=O)=Cc1ccccc1 [alpha-Amylcinnamaldehyde] next.
N

Request: O=C(OCc1ccccc1)c1ccccc1O [Benzyl salicylate]
N

Queued: CCOc1cc(C=O)ccc1O [Ethyl Vanillin]
Y

Item: CCCCCCOC(C)=O [hexyl acetate]
N

And then CCCC=O [butyraldehyde] , what is it?
Y

How about this compound: COc1ccc(C)cc1 [4-Methylanisole]
Y

Please answer likewise for C=C(C)[C@@H]1CC[C@@H](C)C(=O)C1 [D-Dihydrocarvone]
N

* * *

System: Homo sapiens (human subject panel, olfactory perception)
protocol description: perceived odor intensity rating (rating 0-100); higher = stronger perceived smell
experimental parameters: odor dilution in paraffin oil: 1/10
Where a name gives a salt, the structure may show the parent alone.
quantity name: perceived odor intensity rating
Enter a number only.

Given the compound IC(I)I [Iodoform] , what is its reported perceived odor intensity rating?
84.4

Then this compound: "c1ccc(COCc2ccccc2)cc1"
75.7

Continue with "CCCCCCCCCCCCO"
64.6

Lookup C=CCCCCCCCCC(=O)OCCCC [Butyl 10-undecenoate]
58.1

# iterate: COC(=O)c1cccnc1 [Methyl nicotinate]
71.6

Now the compound "COc1ccc2ccc(=O)oc2c1"
62

Likewise for CCOC(=O)CC(O)(CC(=O)OCC)C(=O)OCC [Triethyl citrate] ?
31.3

Moving on to CC12CCC(CC1=O)C2(C)C (centres undefined)
89.8

And then CC(=O)OC1CC(C)CCC1C(C)C [L-Menthyl acetate] , what is it?
63.7

Likewise for "N[C@@H](CC(=O)O)C(=O)O" ?
63.6

Repeat with C[S+](C)[O-] [Methyl sulfoxide]
50.7

And then C=C(C)C1CC=C(C)C(=O)C1 (single isomer, unassigned; (-)) [(-)-Carvone] , what is it?
84.3

Could you do the same for "N=C(N)NCCC[C@H](N)C(=O)O" , please?
19.2

Please give the result for "O=C(O)CCCCC(=O)O" too.
35.7

Moving on to C=C(C)[C@@H]1CC[C@@H](C)C(=O)C1 [D-Dihydrocarvone]
81.9

What do you get for COC(=O)CCC(=O)OC [dimethyl succinate] ?
63.2

Further, for CC(C)COC(=O)c1ccccc1 [Isobutyl benzoate] ?
78.7

Item: CC(O)CO (centres undefined)
45.8

Same read-out for c1ccc(CSSCc2ccccc2)cc1 [Benzyl disulfide] ?
81.2

Another compound: "CCCCCCCCCC=O"
78.9

Another compound: "CC(=O)c1c(C)c([N+](=O)[O-])c(C(C)(C)C)c([N+](=O)[O-])c1C"
48.1

Follow-up item: "O=C(c1ccccc1)c1ccccc1"
67.7

"OC[C@@H](O)[C@@H](O)[C@H](O)[C@@H](O)CO" , same question.
73.4

Now try CCCCCOC(=O)CCCCC [Amyl hexanoate] .
67.3

Please do the same for CCCCOC(=O)CC(CC(=O)OCCCC)(OC(C)=O)C(=O)OCCCC [Tributyl-2-Acetylcitrate] as well.
41.4

Check CC(=O)OC1CC(C)CCC1C(C)C [L-Menthyl acetate (replicate)] too.
59.6

Then this compound: CCCCCCCCCOC(C)=O [Nonyl acetate]
77.8

Please answer likewise for "c1ccc(-c2ccccc2)cc1"
77.6

Can you handle "O=C(O)/C=C/C(=O)O" next?
58.8

Same lookup for NC(Cc1ccccc1)C(=O)O (racemic) [DL-Phenylalanine] , please.
70

Would you mind doing Cc1ncc(C[n+]2csc(CCO)c2C)c(N)n1 [Thiamine hydrochloride] as well?
67.1

Now consider "CCCCCCCCCC(OC)OC" .
70.7

Cool, now CCOC(=O)c1ccco1 [Ethyl 2-furoate]
87.4

Please answer likewise for "CCCCCC(C=O)=Cc1ccccc1"
65.5
